- System: HCV pseudoparticles, genotype 1a (H77C) E1 and E2 envelope
- assay_protocol: HCV pseudoparticle infection assay (luciferase, Huh7 cells)
- Assay type: cell-based
- measurement_context: Hepatitis C virus, Huh-7, 48 h, read-out: EC50 (nM) 1a (H77C)
Quick list: EC50 per entry.
quantity: EC50

compound: CN(C)C(=O)C(=O)N1CC2CN(C(=O)c3ccc(Nc4nc(NC5(c6ccc(Cl)cc6)CC5)nc(OCC(F)(F)F)n4)cc3)CC2C1 (stereo not drawn) [Compound 1005]
recorded_value: 0.01 to 10 nM
//
compound: O=C(Nc1cccc(F)c1)C(=O)N1CC2CN(C(=O)c3ccc(Nc4nc(NC5(c6ccc(Cl)cc6)CC5)nc(OCC(F)(F)F)n4)cc3)CC2C1 (stereo not drawn) [Compound 1006]
recorded_value: 0.01 to 10 nM
//
compound: O=C(Nc1ccc(F)cc1)C(=O)N1CC2CN(C(=O)c3ccc(Nc4nc(NC5(c6ccc(Cl)cc6)CC5)nc(OCC(F)(F)F)n4)cc3)CC2C1 (stereo not drawn) [Compound 1008]
recorded_value: 0.01 to 10 nM

###

Quick list: EC50 per entry.
- System: HCV pseudoparticles, genotype 1a (H77C) E1 and E2 envelope
- assay_protocol: HCV pseudoparticle infection assay (luciferase, Huh7 cells)
- Assay type: cell-based
- measurement_context: Hepatitis C virus, Huh-7, 48 h, read-out: EC50 (nM) 1a (H77C)
quantity: EC50

compound: O=C(Nc1nccs1)C(=O)N1CC2CN(C(=O)c3ccc(Nc4nc(NC5(c6ccc(Cl)cc6)CC5)nc(OCC(F)(F)F)n4)cc3)CC2C1 (stereo not drawn)
recorded_value: 0.01 to 10 nM
//
compound: O=C(Nc1cc(F)cc(F)c1)C(=O)N1CC2CN(C(=O)c3ccc(Nc4nc(NC5(c6ccc(Cl)cc6)CC5)nc(OCC(F)(F)F)n4)cc3)CC2C1 (stereo not drawn)
recorded_value: 0.01 to 10 nM
//
compound: O=C(C(=O)N1CC2CN(C(=O)c3ccc(Nc4nc(NC5(c6ccc(Cl)cc6)CC5)nc(OCC(F)(F)F)n4)cc3)CC2C1)N1CCCCC1 (stereo not drawn)
recorded_value: 0.01 to 10 nM
//
compound: O=C(NC1CCCCC1)C(=O)N1CC2CN(C(=O)c3ccc(Nc4nc(NC5(c6ccc(Cl)cc6)CC5)nc(OCC(F)(F)F)n4)cc3)CC2C1 (stereo not drawn)
recorded_value: 0.01 to 10 nM
//
compound: O=C(C(=O)N1CC2CN(C(=O)c3ccc(Nc4nc(NC5(c6ccc(Cl)cc6)CC5)nc(OCC(F)(F)F)n4)cc3)CC2C1)N1CCc2ccccc2C1 (stereo not drawn)
recorded_value: 0.01 to 10 nM
//
compound: CNC(=O)C(=O)N1CC2CN(C(=O)c3ccc(Nc4nc(NC5(c6ccc(Cl)cc6)CC5)nc(OCC(F)(F)F)n4)cc3)CC2C1 (stereo not drawn)
recorded_value: 10 to 1000 nM

###

- System: HCV pseudoparticles, genotype 1a (H77C) E1 and E2 envelope
- assay_protocol: HCV pseudoparticle infection assay (luciferase, Huh7 cells)
- Format: cell-based
- measurement_context: Hepatitis C virus, Huh-7, 48 h, read-out: EC50 (nM) 1a H77C)
quantity: EC50

molecule: CNC(=O)C(=O)N1CC2CN(C(=O)c3ccc(Nc4nc(NC5(c6ccc(Cl)cc6)CC5)nc(OCC(F)(F)F)n4)cc3)CC2C1 (stereo not drawn) [Compound 1017]
quantity: EC50
recorded_value: 11.1 nM
--
molecule: CN(C)C(=O)C(=O)N1CC2CN(C(=O)c3ccc(Nc4nc(NC5(c6ccc(Cl)cc6)CC5)nc(OCC(F)(F)F)n4)cc3)CC2C1 (stereo not drawn) [Compound 1005]
quantity: EC50
recorded_value: 2.68 nM
--
molecule: Cc1ccc(NC(=O)C(=O)N2CC3CN(C(=O)c4ccc(Nc5nc(NC6(c7ccc(Cl)cc7)CC6)nc(OCC(F)(F)F)n5)cc4)CC3C2)cc1 (stereo not drawn) [Compound 1001]
quantity: EC50
recorded_value: 0.12 nM
